assayComment: Inhibition of Helicobacter pylori FabZ
pIC50: −log10 of the molar value.
Outcome label depends on pIC50 relative to 5: at/above gives Y, below gives N.

## Input Could you tell me if the measured pIC50 of O=C(N/N=C/c1cc(Br)c(O)c(Br)c1O)c1ccc2c(c1)Cc1ccccc1-2 reaches 5 or more?
## Output Y

## Input Reported pIC50 at or above 5? O=C(N/N=C/c1cc(Br)c(O)c(Br)c1O)c1ccc(F)cc1
## Output Y

## Input Dear colleague, could you confirm whether O=C(N/N=C/c1cc(Br)c(O)c(Br)c1O)c1ccc(-c2ccc(O)cc2)cc1 has pIC50 at or above 5?
## Output N

## Input Would you say O=C(N/N=C/c1cc(Br)c(O)c(Br)c1O)c1ccc2ccccc2c1O shows pIC50 at minimum 5?
## Output Y

---

Test system: Helicobacter pylori
assayComment: Inhibition of Helicobacter pylori FabZ at 50 uM
The source made the active and inactive calls. No cut-off for these calls is given here.
parameterMeasured: inhibition

* COCCN1C(=O)/C(=C\c2ccc(-c3ccc(Cl)c(C(=O)O)c3)o2)S/C1=N/c1ccccc1 | 63.9%
* O=C(N/N=C/c1cc(Br)c(O)c(Br)c1O)c1cccc(F)c1 | 23.3%
* COc1c(Br)cc(/C=N/NC(=O)c2cccnc2)c(OC)c1Br | 64.4%
* COCCN1C(=O)/C(=C\c2ccc(-c3ccc(Cl)cc3)o2)S/C1=N/c1ccccc1 | inactive
* COCCN1C(=O)/C(=C\c2ccc(-c3ccc(Cl)c(C(=O)OC)c3)o2)S/C1=N/c1ccccc1F | 10%

Hey, Helicobacter pylori data for COC(=O)c1cc(-c2ccc(/C=C3/S/C(=N/c4ccccc4)N(CCN4CCCC4)C3=O)o2)ccc1Cl : inhibition came out at inactive

# inhibition measured on Helicobacter pylori for item COCCN1C(=O)/C(=C\c2ccc(-c3cc(C(=O)OC)ccc3Cl)o2)S/C1=N/c1ccccc1 = inactive

Observed inhibition, Helicobacter pylori, COCCN1C(=O)/C(=C\c2ccc(-c3ccc(Cl)c(C(=O)OC)c3)o2)S/C1=N/c1ccc(C(F)(F)F)cc1 : inactive

So the reported inhibition for O=C(N/N=C/c1ccc(O)cc1O)c1cccnc1 , on Helicobacter pylori, turned out to be 25.6%

---

Test system: Helicobacter pylori
assayComment: Inhibition of Helicobacter pylori FabZ at 50 uM
Active and inactive are the calls of the source. No cut-off for these calls is given here.
parameterMeasured: inhibition

Some compounds with recorded inhibition:
- COCCN1C(=O)/C(=C\c2ccc(-c3ccc(Cl)c(C(=O)OC)c3)o2)S/C1=N/c1ccc(Br)cc1: inactive
- COc1ccc(C(=O)N/N=C/c2cc(Br)c(O)c(Br)c2O)cc1: 81.4%
- COCCN1C(=O)/C(=C\c2ccc(-c3ccc(Cl)c(C(=O)OC)c3)o2)S/C1=N/c1cccc(C(F)(F)F)c1: 19.9%
- COCCN1C(=O)/C(=C\c2ccc(-c3ccc(Cl)c(C(=O)O)c3)o2)S/C1=N/c1ccc(OC)cc1: 15.4%

Notebook: O=C(N/N=C/c1cc(Br)c(O)c(Br)c1O)c1cccc(Br)c1 , inhibition read as 96%

Quick note, inhibition for O=C(N/N=C/c1cc(Br)c(O)c(Br)c1O)c1ccc(F)cc1 landed at 85%

So, O=C(N/N=C/c1cc(Br)c(O)c(Br)c1O)c1ccc2ccccc2c1O ? Its inhibition was 87%

# inhibition of COCCN1C(=O)/C(=C\c2ccc(-c3ccc(Cl)c(C(=O)O)c3)o2)S/C1=N/c1ccc2ccccc2c1 = 32.2%

Briefly, inhibition measured for COCCN1C(=O)/C(=C\c2ccc(-c3ccc(Cl)c(C(=O)OC)c3)o2)S/C1=N/c1ccccc1C(F)(F)F : inactive
